Biological target: human liver cathepsin L (Homo sapiens)
Construct: 8.7 ng/mL human liver cathepsin L (Calbiochem 219402); purchased Calbiochem 219402; host or cells: human liver
Sequence (P07711 114-288 limits assumed): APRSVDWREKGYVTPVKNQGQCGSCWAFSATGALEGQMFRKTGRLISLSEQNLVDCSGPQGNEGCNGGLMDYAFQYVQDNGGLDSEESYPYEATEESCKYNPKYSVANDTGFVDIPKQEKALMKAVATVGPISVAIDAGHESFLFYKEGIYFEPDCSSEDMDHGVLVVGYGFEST
Sequence (P07711 292-333 limits assumed): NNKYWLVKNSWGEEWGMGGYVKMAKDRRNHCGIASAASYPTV
Test: Cathepsin L assay, IC50 determination
Type: biochemical
Details: Table 1; read-out: IC50 Cat L
Procedure: Assay buffer consisted of 20 mM sodium acetate, 1 mM ethylenediaminetetraacetic acid (EDTA) and 5 mM cysteine, pH 5.5. […] All reactions were performed in 20 mM sodium acetate buffer containing 5 mM cysteine and 1 mM EDTA, pH 5.5. Reaction progress was monitored using the Envision microplate reader. IC50 values were measured in triplicate.
Property Label: IC50 (µM)

Compound	Measured Target	Comparison Sign	Recorded Number
CCc1ccccc1NC(=O)CSC(=O)NNC(=O)[C@H](CCCNC(=N)N[N+](=O)[O-])NC(=O)OC(C)(C)C	human liver cathepsin L (Homo sapiens)	=	3.67
CCc1ccccc1NC(=O)CSC(=O)NNC(=O)[C@@H](C)CO	human liver cathepsin L (Homo sapiens)	>	25
C[C@H](CO)C(=O)NNC(=O)SCC(=O)N1CCCc2ccccc21	human liver cathepsin L (Homo sapiens)	>	25
CC(C)(C)OC(=O)N[C@@H](Cc1c[nH]c2ccccc12)C(=O)NNC(=O)SC1CCN(c2ccccc2)C1=O (stereo partly shown)	human liver cathepsin L (Homo sapiens)	=	1.05
